Listed here are variants together with their documented fraction ligated.
B1: F1*; the commonest letter at each place (parent)
chain: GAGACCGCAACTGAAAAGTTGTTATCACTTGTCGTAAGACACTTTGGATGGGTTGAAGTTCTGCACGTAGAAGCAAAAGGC

- Variants of: B1
- Measurement Description: fraction ligated after 30 min (ligated reads / total reads); higher = more ligase activity
- Test Parameters: with F1*sub RNA substrate (template-directed ligation), 42 °C
Experimental Readout: fraction ligated

* T29A T43A | 0.84
* C28G A56C | 0.7
* G47T A57C | 0.0653
* A39T G47C | 0.229
* A41G G46T | 0.767
* G34T A56T | 0.793
* T35G A39T | 0.836
* A24G A41G | 0.691
* T49C G55A | 0.335
* A24T G47T | 0.108
* T30G G38C | 0.805
* A36G A37T | 0.872
* C33A A41C | 0.818
* C33G T45A | 0.689
* T23G T25C | 0.781
* G38A T45A | 0.773
* T30C C42T | 0.794
* G47A G50A | 0.381
* T43A G47C | 0.515
* G31C T35C | 0.769
* A37T A56G | 0.807
* T35C A48T | 0.792
* T23A A27T | 0.794
* T25G G47A | 0.363
* T23G T44A | 0.842
* T44G T45A | 0.769
* T35A G38C | 0.855
* T29A T32G | 0.842
* A37T C42A | 0.85
* G38A G47A | 0.796
* A48T A57G | 0.787
* G50C A57C | 0.033
* G31T C33G | 0.808
* T23G A39G | 0.867
* T23C A41C | 0.783
* T23G A36T | 0.841
* C40G G50A | 0.262
* G46C T49C | 0.0853
* A37C G38T | 0.844
* A36G A37C | 0.835
* T23G G46C | 0.803
* G38T T44G | 0.828
* C40A G50C | 0.123
* G31C G50A | 0.057
* A24C G55C | 0.158
* C33G T45C | 0.273
